Target: human A1R (Homo sapiens)
Sequence (P30542 1-326): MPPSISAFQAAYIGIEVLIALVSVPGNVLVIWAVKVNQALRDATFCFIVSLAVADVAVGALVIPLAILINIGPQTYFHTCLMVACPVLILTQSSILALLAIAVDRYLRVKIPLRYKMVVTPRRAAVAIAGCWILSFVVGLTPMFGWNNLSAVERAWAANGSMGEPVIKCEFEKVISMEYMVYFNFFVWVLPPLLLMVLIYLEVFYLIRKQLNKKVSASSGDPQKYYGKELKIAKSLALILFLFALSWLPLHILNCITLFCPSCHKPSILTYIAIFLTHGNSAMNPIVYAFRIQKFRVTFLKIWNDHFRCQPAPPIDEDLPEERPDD
Assay: Competitive radioligand binding assay, [3H] DPCPX, membranes of HEK 293 cells stably expressing human A1R
Settings: read-out: hA1 binding Ki ± SD; displacement of 0.75 nM [3H] DPCPX; HEK 293 membranes; test compounds 1 pM to 1 μM
quantity.measured: Ki (nM)

CCCn1c(=S)sc2c(=N)n(NC(N)=O)cnc21 [Compound 16] | 2.8
